experiment: binders of probe aHhip on microarray, primary screen, stem cell growth factor project, biochemical, small-molecule microarray, fluorescence 635/667 (AID 1087); conditions: higher = more signal;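 also: score merges spot fluorescence at 667nm with spot signal to noise ratio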
Please use Satisfied whenever composite z-score is not below -0.2, and Not satisfied whenever it is.

Answered cases to consult:
Compound | Classification
CCOC(=O)C1=CC[C@@H](c2ccc(N(CC)CC)cc2)N(S(=O)(=O)c2ccc(C)cc2)[C@H]1c1ccc([N+](=O)[O-])cc1 | Satisfied
COc1cc(NN2C(C(O)c3ccc(I)cc3)C=CC3C(=O)N(C)C(=O)C32)cc(OC)c1OC (centres undefined) | Satisfied
C[C@H]1ON(c2ccccc2)[C@@H](c2ccccc2)[C@@H]1C(=O)N1C(=O)OC[C@@H]1c1ccccc1 | Not satisfied

stdin: Is it the case that Cc1ccc(-c2cccc(=O)o2)cc1 has composite z-score reaching or exceeding -0.2?
stdout: Not satisfied

stdin: Cool, now COC(=O)[C@@]1(Cc2ccc(OC)cc2)[C@H]2c3cc(C(=O)N4CCCC4)n(Cc4ccc(C)o4)c3C[C@H]2CN1C(=O)c1ccccc1
stdout: Satisfied

stdin: Further, for CCOC(=O)C1=CCC(c2cccc(Cl)c2)O1 (centres undefined) ?
stdout: Satisfied

stdin: Proceed to CCCC[C@H]1OB(O)C[C@H]2C1=C(COc1ccccc1)Cn1c(=O)n(-c3ccccc3)c(=O)n12
stdout: Satisfied

stdin: What about COCCCNC(=O)[C@]1(CCS(=O)(=O)c2ccccc2)N=C(c2ccc(OCCCO)cc2)O[C@@H]1c1ccccc1 ?
stdout: Satisfied
